target: UniProtKB O70528; type: cell membranes, Dunkin-Hartley, Striatum, Membrane
Sequence (O70528 whole entry): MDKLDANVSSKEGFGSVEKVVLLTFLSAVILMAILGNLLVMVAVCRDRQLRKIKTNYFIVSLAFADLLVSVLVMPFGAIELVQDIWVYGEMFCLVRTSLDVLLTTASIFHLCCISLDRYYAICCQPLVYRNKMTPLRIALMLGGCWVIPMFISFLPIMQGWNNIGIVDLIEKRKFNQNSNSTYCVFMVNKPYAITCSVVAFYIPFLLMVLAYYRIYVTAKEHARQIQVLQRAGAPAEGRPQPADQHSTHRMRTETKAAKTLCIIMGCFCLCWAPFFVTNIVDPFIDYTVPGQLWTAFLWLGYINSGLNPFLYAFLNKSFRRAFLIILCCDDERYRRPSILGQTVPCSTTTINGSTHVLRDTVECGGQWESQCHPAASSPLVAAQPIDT
result-type: IC50

# example entries with known answers
Nc1ccn([C@@H]2CS[C@H](CO)O2)c(=O)n1 [LAMIVUDINE]; Not Active
CCCC(CCC)C(=O)O [VALPROIC ACID]; Not Active
N=C(Nc1ccccc1)Nc1ccccc1; Not Active
CC(C)NCC(O)COc1cccc2ccccc12 (stereo not given) [PROPRANOLOL]; Not Active

Okay, now this molecule:
*Q* Please give the measured IC50 for this molecule: O=C(c1ccc(OCCN2CCCCC2)cc1)c1c(-c2ccc(O)cc2)sc2cc(O)ccc12 [RALOXIFENE]
*A* Not Active
